Entry source: ChEMBL document CHEMBL1134430

system: Mus musculus; test: In vivo activity in Disseminated Murine Candidiasis Model; assay type: functional
measurement.kind: ED50 (mg/kg)
# value in mg/kg; strip the unit string

Give Mus musculus ED50 for `CCCCCCCCCCCCC[C@@H]1CC(=O)N[C@H]([C@@H](C)O)C(=O)N[C@H](C)C(=O)N[C@@H](Cc2ccc(O)cc2)C(=O)N[C@@H](C(C)C)C(=O)N2C[C@H](O)C[C@H]2C(=O)N[C@H]([C@@H](C)O)C(=O)N[C@@H]([C@@H](C)O)C(=O)N2CC[C@H](O)[C@H]2C(=O)N[C@@H]([C@H](O)CC(N)=O)C(=O)NCC(=O)N[C@H]([C@@H](C)O)C(=O)N[C@@H](CCCN)C(=O)O1.Cl`
0.44
